// S.I. (Selectivity Index) = CC50/EC50 lookup, one value per entry
Tested on: HCV replication in JWT replicon cell line (subgenomic construct of genotype 1b)
Test: microbe, parasite or virus in culture
Format: cell-based, hepatitis C virus

{"compound": "O=C(Nc1ncc([N+](=O)[O-])s1)c1ccccc1O [Tizoxanide, tizoxanide]", "experimental_system": "HCV replication in JWT replicon cell line (subgenomic construct of genotype 1b)", "S.I. (Selectivity Index) = CC50/EC50": 150}
{"compound": "NC(=O)c1ncn([C@@H]2O[C@H](CO)[C@@H](O)[C@H]2O)n1", "experimental_system": "HCV replication in JWT replicon cell line (subgenomic construct of genotype 1b)", "S.I. (Selectivity Index) = CC50/EC50": 3.9}
{"compound": "C[C@@]1(O)[C@H](O)[C@@H](CO)O[C@H]1n1ccc(N)nc1=O", "experimental_system": "HCV replication in JWT replicon cell line (subgenomic construct of genotype 1b)", "S.I. (Selectivity Index) = CC50/EC50": ">136"}
{"compound": "CC(=O)Oc1ccccc1C(=O)Nc1ncc([N+](=O)[O-])s1 [Nitazoxanide, nitazoxanide]", "experimental_system": "HCV replication in JWT replicon cell line (subgenomic construct of genotype 1b)", "S.I. (Selectivity Index) = CC50/EC50": 354}

###

Assay: Cytotoxicity, neutral red dye uptake, JWT
Format: cell-based
Details: human; JWT; read-out: CC50
// CC50 at 3 days lookup, one value per entry
parameter_measured: CC50 at 3 days

{"compound": "O=C(Nc1ncc([N+](=O)[O-])s1)c1ccccc1O [Tizoxanide, tizoxanide]", "parameter_measured": "CC50 at 3 days", "data_value": "24 µM"}
{"compound": "CC(=O)Oc1ccccc1C(=O)Nc1ncc([N+](=O)[O-])s1 [Nitazoxanide, nitazoxanide]", "parameter_measured": "CC50 at 3 days", "data_value": "39 µM"}

###

Test system: HCV replication
Assay: Effect of nitazoxanide pre-treatment and treatment duration (3 or 6 days) on antiviral activity in replicon cultures
Format: cell-based, hepatitis C virus
Conditions: Hepatitis C virus, 144 h; duration 6 days; expressed as NTZ concentration; read-out: EC50, NTZ
pEC50: −log10 of the molar value.

{"compound": "CC(=O)Oc1ccccc1C(=O)Nc1ncc([N+](=O)[O-])s1 [Nitazoxanide, nitazoxanide]", "experimental_system": "HCV replication", "pEC50": 6.70}

###

// CC50 at 3 days lookup, one value per entry
Experiment: Cytotoxicity, neutral red dye uptake, RP7
Type: cell-based
Settings: human
parameter_measured: CC50 at 3 days (µM)

{"compound": "C[C@@]1(O)[C@H](O)[C@@H](CO)O[C@H]1n1ccc(N)nc1=O [2′-C-methyl cytidine]", "inequality_sign": ">", "data_value": 300}
{"compound": "CC(=O)Oc1ccccc1C(=O)Nc1ncc([N+](=O)[O-])s1 [Nitazoxanide, nitazoxanide]", "inequality_sign": "=", "data_value": 38}
{"compound": "NC(=O)c1ncn([C@@H]2O[C@H](CO)[C@@H](O)[C@H]2O)n1 [Ribavirin]", "inequality_sign": "=", "data_value": 77}
{"compound": "O=C(Nc1ncc([N+](=O)[O-])s1)c1ccccc1O [Tizoxanide, tizoxanide]", "inequality_sign": "=", "data_value": 25}

###

System: AVA5 cells
Assay: Cytotoxicity, neutral red dye uptake, AVA5
Assay type: cell-based
Conditions: AVA5 cell cultures, mono and combination treatments (Table 2)

{"molecule": "C[C@@]1(O)[C@H](O)[C@@H](CO)O[C@H]1n1ccc(N)nc1=O", "CC50": "> 300 µM"}

All figures here come from patent USRE47404E1.
